log10 EC50 reference
Molecular target: GPR119 receptor (Mesocricetus auratus, UniProt A0A1U8CD06)
Construct: which endogenously express the GPR119 receptor; host or cells: HIT-T15 hamster pancreatic islet cells
Sequence (A0A1U8CD06 1-334): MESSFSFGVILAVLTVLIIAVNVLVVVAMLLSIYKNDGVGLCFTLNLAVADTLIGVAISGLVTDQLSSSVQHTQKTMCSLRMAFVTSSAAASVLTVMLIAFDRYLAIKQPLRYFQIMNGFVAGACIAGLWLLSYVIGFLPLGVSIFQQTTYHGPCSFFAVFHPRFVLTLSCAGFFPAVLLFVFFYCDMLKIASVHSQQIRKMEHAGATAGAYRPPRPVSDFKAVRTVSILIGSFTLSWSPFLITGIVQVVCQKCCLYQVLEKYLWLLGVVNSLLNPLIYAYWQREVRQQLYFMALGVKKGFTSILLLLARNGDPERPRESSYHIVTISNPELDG
Experiment: cAMP assay in HIT-T15 hamster pancreatic islet cells (functional agonist activity)
Assay type: cell-based
Details: HIT-T15 cells endogenously expressing GPR119; 30 min at 25° C.; intracellular cAMP
Note the log scale: values are log10 of EC50 expressed in µM.

Solved cases (6 shown):
Cc1nnnn1-c1ccc(Oc2ncnc3c2cnn3[C@H]2CC[C@H](c3nc(C(C)C)no3)CC2)cc1; 0.52
CC(C)c1noc(N2CCC(n3ncc4c(Oc5ccc(S(C)(=O)=O)cc5)ncnc43)CC2)n1; -0.37
CC(C)CCC(=O)N1CCC(n2ncc3c(Oc4ccc(S(C)(=O)=O)cc4)ncnc32)CC1; -0.36
CS(=O)(=O)c1ccc(Oc2ncnc3c2cnn3C2CCN(C(=O)c3ccccc3)CC2)cc1; 0.23
CC(C)(C)OC(=O)N1CCC(n2ncc3c(Oc4cnc5[nH]ccc5c4)ncnc32)CC1; 0.08
CS(=O)(=O)c1ccc(Oc2ncnc3c2cnn3C2CCN(Cc3ccc(Cl)cc3)CC2)cc1; -0.24

Noted for CC(C)(C)OC(=O)N1CCC(n2ncc3c(N4CCc5cc(S(C)(=O)=O)ccc54)ncnc32)CC1 : its log10 EC50 reads -0.34

====

Molecular target: GPR119 receptor (Mesocricetus auratus)
Construct: which endogenously express the GPR119 receptor; host or cells: HIT-T15 hamster pancreatic islet cells
Experiment: cAMP assay in HIT-T15 hamster pancreatic islet cells (functional agonist activity)
Type: cell-based
Settings: HIT-T15 cells endogenously expressing GPR119; 30 min at 25° C.; intracellular cAMP
Method: The functional agonist activities of compounds of the invention were characterized using a cAMP assay in HIT-T15 hamster pancreatic islet cells (American Type Culture Collection, Manassas, Va., USA) which endogenously express the GPR119 receptor. The cells were cultured in Kaighn's modification of Ham's F12 medium (Invitrogen Corporation, Carlsbad, Calif., USA) containing 10% horse serum, 2.5% FBS, and 1% Pen/Strep and grown in 225 cm^2 tissue culture flasks until they reached 75-85% confluence. […]
Threshold 0.7 µM. EC50 below it: Condition met. EC50 at it or above: Condition not met.

Take a look at these entries with their results.
CC(C)OC(=O)N1CCC(n2ncc3c(Oc4ccc(S(C)(=O)=O)cc4)ncnc32)CC1; Condition met
CCOc1ccc(Oc2ncnc3c2cnn3C2CCN(C(=O)OC(C)(C)C)CC2)cc1; Condition met
Cc1cc(C(=O)N2CCC(n3ncc4c(Oc5ccc(S(C)(=O)=O)cc5)ncnc43)CC2)no1; Condition not met
CC(C)(C)OC(=O)N1CCC(n2ncc3c(Oc4ccc(S(C)(=O)=O)cc4F)ncnc32)CC1; Condition met
CC(C)(C)OC(=O)N1CCC(n2ncc3c(Oc4cncc(Cl)c4)ncnc32)CC1; Condition not met

Consider now this further compound.
Quick check: EC50 of CS(=O)(=O)c1ccc(Oc2ncnc3c2cnn3C2CCN(C(=O)C3CCC3)CC2)cc1 under 0.7 µM?
Condition not met

====

Target: GPR119 receptor (Mesocricetus auratus, UniProt A0A1U8CD06)
Construct: which endogenously express the GPR119 receptor; host or cells: HIT-T15 hamster pancreatic islet cells
Experiment: cAMP assay in HIT-T15 hamster pancreatic islet cells (functional agonist activity)
Format: cell-based
Settings: HIT-T15 cells endogenously expressing GPR119; 30 min at 25° C.; intracellular cAMP
Threshold 0.4 µM. EC50 below it: 1. EC50 at it or above: 0.

Take a look at these entries with their results.
CC(=O)c1ccc(Oc2ncnc3c2cnn3C2CCN(C(=O)OC(C)(C)C)CC2)cc1; 1
COC(=O)c1ccc(Oc2ncnc3c2cnn3C2CCN(C(=O)OC(C)(C)C)CC2)c(F)c1; 0
CC(=O)Nc1cccc(Oc2ncnc3c2cnn3C2CCN(C(=O)OC(C)(C)C)CC2)c1; 0

Quick check: EC50 of CS(=O)(=O)c1ccc(Oc2ncnc3c2cnn3C2CCN(C(=O)C3CCCC3)CC2)cc1 under 0.4 µM?
0

Quick check: EC50 of CC(C)(C)OC(=O)N1CCC(n2ncc3c(Oc4ccc5c(c4)C=CS5(=O)=O)ncnc32)CC1 under 0.4 µM?
0

====

Molecular target: GPR119 receptor (Mesocricetus auratus, UniProt A0A1U8CD06)
Construct: which endogenously express the GPR119 receptor; host or cells: HIT-T15 hamster pancreatic islet cells
Sequence (A0A1U8CD06 1-334): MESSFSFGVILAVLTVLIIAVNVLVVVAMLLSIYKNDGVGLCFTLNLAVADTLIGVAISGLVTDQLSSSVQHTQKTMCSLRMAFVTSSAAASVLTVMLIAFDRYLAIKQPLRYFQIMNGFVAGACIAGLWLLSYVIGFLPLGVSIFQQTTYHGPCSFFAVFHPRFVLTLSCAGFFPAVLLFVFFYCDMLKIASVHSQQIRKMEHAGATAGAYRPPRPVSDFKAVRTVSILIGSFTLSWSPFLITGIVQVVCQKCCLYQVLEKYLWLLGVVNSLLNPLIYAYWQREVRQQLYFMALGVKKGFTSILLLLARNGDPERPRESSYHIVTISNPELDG
Assay: cAMP assay in HIT-T15 hamster pancreatic islet cells (functional agonist activity)
Assay type: cell-based
Details: HIT-T15 cells endogenously expressing GPR119; 30 min at 25° C.; intracellular cAMP
Measurement Kind: EC50 (µM)
Answer in µM, number only, no unit symbol.

Solved cases (3 shown):
CS(=O)(=O)c1ccc(Oc2ncnc3c2cnn3C2CCN(Cc3nccs3)CC2)cc1 [Example 169]; 3.6
CC(C)COC(=O)N1CCC(n2ncc3c(Oc4ccc(S(C)(=O)=O)cc4)ncnc32)CC1 [Example 106]; 0.11
Cc1nc(Cl)ccc1Oc1ncnc2c1cnn2C1CCN(C(=O)OC(C)(C)C)CC1 [Example 97]; 0.53

Now consider a different compound.
Summary line: Cc1nc(S(C)(=O)=O)ccc1Nc1ncnc2c1cnn2C1CCN(C(=O)OC(C)(C)C)CC1 [Example 8] , GPR119 receptor (Mesocricetus auratus, UniProt A0A1U8CD06), reported EC50 = 0.76

====

Target: GPR119 receptor (Mesocricetus auratus)
Construct: which endogenously express the GPR119 receptor; host or cells: HIT-T15 hamster pancreatic islet cells
Test: cAMP assay in HIT-T15 hamster pancreatic islet cells (functional agonist activity)
Type: cell-based
Details: HIT-T15 cells endogenously expressing GPR119; 30 min at 25° C.; intracellular cAMP
Threshold 0.5 µM. EC50 below it: fulfilled. EC50 at it or above: not fulfilled.

Take a look at these entries with their results.
CC(C)(C)OC(=O)N1CCC(n2ncc3c(Oc4ccc(C(N)=O)cc4)ncnc32)CC1; not fulfilled
CS(=O)(=O)c1ccc(Oc2ncnc3c2cnn3C2CCN(C(=O)c3nc4ccccc4s3)CC2)cc1; fulfilled
CCOc1ccc(Oc2ncnc3c2cnn3C2CCN(C(=O)OC3CCCC3)CC2)c(F)c1; fulfilled
CS(=O)(=O)c1ccc(Oc2ncnc3c2cnn3C2CCN(Cc3ccccc3)CC2)cc1; not fulfilled
CC(=O)Nc1ccc(Oc2ncnc3c2cnn3C2CCN(C(=O)OC(C)(C)C)CC2)cc1; fulfilled
CC(C)(C)OC(=O)N1CCC(n2ncc3c(Oc4cc(F)c(F)cc4F)ncnc32)CC1; fulfilled

Quick check: EC50 of CC(C)(C)OC(=O)N1CCC(n2ncc3c(Oc4cc(F)c(F)cc4C#N)ncnc32)CC1 under 0.5 µM?
not fulfilled

Quick check: EC50 of CS(=O)(=O)c1ccc(Oc2ncnc3c2cnn3C2CCN(Cc3ccc4c(c3)OC(F)(F)O4)CC2)cc1 under 0.5 µM?
fulfilled

Quick check: EC50 of CC(C)(C)OC(=O)N1CCC(n2ncc3c(Oc4ccc5sccc5c4)ncnc32)CC1 under 0.5 µM?
not fulfilled

Quick check: EC50 of CS(=O)(=O)c1ccc(Oc2ncnc3c2cnn3C2CCN(Cc3cccc(Cl)c3)CC2)cc1 under 0.5 µM?
fulfilled

====

Target: GPR119 receptor (Mesocricetus auratus, UniProt A0A1U8CD06)
Construct: which endogenously express the GPR119 receptor; host or cells: HIT-T15 hamster pancreatic islet cells
Sequence (A0A1U8CD06 1-334): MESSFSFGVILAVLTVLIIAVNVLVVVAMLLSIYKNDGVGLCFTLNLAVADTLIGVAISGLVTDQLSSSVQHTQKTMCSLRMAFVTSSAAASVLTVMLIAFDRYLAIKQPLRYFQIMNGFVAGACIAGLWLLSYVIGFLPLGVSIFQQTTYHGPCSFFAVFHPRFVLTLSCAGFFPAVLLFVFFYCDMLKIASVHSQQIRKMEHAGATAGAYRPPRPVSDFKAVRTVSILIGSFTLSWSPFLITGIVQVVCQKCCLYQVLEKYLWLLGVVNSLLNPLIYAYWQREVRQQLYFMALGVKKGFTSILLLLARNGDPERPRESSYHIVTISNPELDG
Test: cAMP assay in HIT-T15 hamster pancreatic islet cells (functional agonist activity)
Assay type: cell-based
Details: HIT-T15 cells endogenously expressing GPR119; 30 min at 25° C.; intracellular cAMP
Measurement Kind: EC50 (µM)
Answer in µM, number only, no unit symbol.

Solved cases (5 shown):
CC(C)(C)OC(=O)N1CCC(n2ncc3c(Nc4cc(F)c(F)cc4F)ncnc32)CC1 [Example 4]; 0.53
CS(=O)(=O)c1ccc(Oc2ncnc3c2cnn3C2CCN(C(=O)OC(CF)CF)CC2)cc1 [Example 109]; 0.68
COc1ccccc1CN1CCC(n2ncc3c(Oc4ccc(S(C)(=O)=O)cc4)ncnc32)CC1 [Example 165]; 1.4
CC(C)c1noc(N2CCC(n3ncc4c(Oc5ccc(S(C)(=O)=O)c(F)c5)ncnc43)CC2)n1 [Example 128]; 0.16
Cc1ncccc1Oc1ncnc2c1cnn2C1CCN(C(=O)OC(C)C)CC1 [Example 27]; 0.85

Noted for COc1ccc(Oc2ncnc3c2cnn3C2CCN(C(=O)OC(C)(C)C)CC2)c(Cl)c1 [Example 44] : its EC50 reads 0.19

Noted for CS(=O)(=O)c1ccc(Oc2ncnc3c2cnn3C2CCN(C(=O)c3cccs3)CC2)cc1 [Example 155] : its EC50 reads 1.6

Noted for CS(=O)(=O)c1ccc(Oc2ncnc3c2cnn3C2CCN(C(=O)C(F)(F)F)CC2)cc1 [Example 148] : its EC50 reads 1.7

Noted for CC(C)OC(=O)N1CCC(n2ncc3c(Oc4ccccc4)ncnc32)CC1 [Example 15] : its EC50 reads 2

Noted for CC(C)(C)OC(=O)N1CCCC(n2ncc3c(Oc4ccc(S(C)(=O)=O)cc4)ncnc32)C1 (single isomer, unassigned) [Example 89] : its EC50 reads 0.21
